assay: soluble on expression in E. coli; label from the status in PepcDB or PDB records
Endpoint name: soluble on expression in E. coli

{"columns": ["Sequence entry", "Endpoint value"],
 "data": [
  ["MKLVTGFARIRKPSRPIEFGRWPNRSMSVRVPGAMPLASMNLAVGQSVRIGQRPNSSPSSLPNISFAKIRRWPSRRWLRHQGLHGPIDFGRWPNETMSIRVPGAMPLASMKLAVGQSTALAKGQTQHSQRATPLVLQRTTHTLANGQMQPIITPKRIVHQTRSHIVGGSRDIRLGMSLPGDAPAGSRCRQRRFHDALGRPKRSRTLVANRTCPGWDVASSQTWTSPAWPSPQSPSPDGFGSCQTNKDLTSRGCGG", "not soluble"],
  ["MGLHVPADQHDLDFTRLGPWFSVMVNGEGQRYKVSGQVTHVKPPQSVGFTWGWHDDDDRRGAESHVMFIVEPCAKGARLILDHRELGDDEMSLRHEEGWTSSLRKLAAELEHHHHHH", "not soluble"],
  ["MVFYFKARPDAGDYTIFMGLDKFENEELIKYGFPEDVWFHVDKMSSAHVYLRLHRGQSFDDISEGVLEDCAQLVKANSIQGNKVNNVDVVYTPWSNLKKTASMDVGQVGFHNSKMVRTIRVEKRVNEIVNRLNKTKVERTPDLRAEREAVNAAERAERKQHLREKKKREEIDRLEKERQSEMRSYKGLMVTDKMTSNKDIASSNKSLQELEDDFM", "soluble"],
  ["MGSDKIHHHHHHMPAYKVLQKGKTGDLLNVKHLYIKDIQSGEKVQDSFLVTEKNVAYSQKGAPYLNLRLKDKTGQVDGKIWDNALEWDKRFRKGDVVQVNARAVSFRNSLQLSILSLNTLDDSEVILNDYVPTTRMNVEVMFSELQSIIDRIDTPPLKKLLKSFFDDREIAERFKRAPAAKGFHHIYLGGLLEHTHSVTRLLSQIASHYPGVNRDLLLTGGILHDIGKINEFSYDRLVEYSDEGRLIGHIIIGVEMIDEKITAIPDFPAYLAMELRHLILSHHGILEYGSPKRPKTLEALMVHYVDDLDAKVNAFQEYLNDFRDEDTGWTPFHRFLERYLYRGRVQEITAEEPISPKEF", "not soluble"],
  ["AHHHHHHASAKWVCKICGYIYDEDAGDPDNGISPGTKFEELPDDWVCPICGAPKSEFEKLEDGSPKLMTGFVRASGYANKVRRVLFAITRGKVFPEEVVKAAGELNKIIFEKLQEMGVKKEDVVRISVDFNIEDGKIVWNLDSLEIETYKKEEEEKLALAMEEVEHMEKMFEETVKELEALSDKLREISKEISELVERMKQEYTGLKLRSE", "soluble"],
  ["MGSDKIHHHHHHMMKILFIYRHPSMGFSIGKVFRPIEEEMKKYAEVDSIYMPTSQYSLNSIWQNIKTTRKAINSKKYDIVHITGTEHYLIPFLLGEKVVVTVHDLGHYFDIHGLKKILFWIMQIFSLKFAKAITCISNFTVQELKKTISIKNNKISVIFNEVDKNFSFKEKEFNKDYPVILHIGTRPHKNLSRTIKALNGIKCKLRIIGEITNKELDLLQKYKTDYSFASNLSDNDLLKEYQNADIINFPSCHEGFGMPIIEGQAVGRIVVTSNIEPMISVANNGAAICDPYNIESIRNTYIRVINDFQYRNDIILKGIDNVKKYSIETVAKQYFELYKTL", "not soluble"],
  ["HARKSLTVLVVGESARAENFGILGYGRNTTPNLNKENGLVAFTDVYSCGTETAVSVPCMFSNMGRKNYNATKARNQEGLLDVLKHAGIEVAWRDNQSGCKGTCDRVTFQDVSNLTDPLLCNSHECRDEILLQNLQGFIDSLDKDTVLVLHQMGSHGPEYYKRYPKEFEKFTPVCESNALNNCSRDSIVNAYDNTLLYTDHVLSTLIDLLRSNQAKVDTAMVYLSDHGESLGEYNLFLHGTPYVLAPDQQKHVPMLIWLSDTYQKSFAVTPDCLAKQRNAPLSQDNLFHSMLGLLKVDTKVYDPSLDMFAGCRSELAAADKQ", "not soluble"],
  ["MLQFYRNLGKSGLRVSCLGLGTWVTFGGQITDEMAEHLMTLAYDNGINLFDTAEVYAAGKAEVVLGNIIKKKGWRRSSLVITTKIFWGGKAETERGLSRKHIIEGLKASLERLQLEYVDVVFANRPDPNTPMEETVRAMTHVINQGMAMYWGTSRWSSMEIMEAYSVARQFNLIPPICEQAEYHMFQREKVEVQLPELFHKIGVGAMTWSPLACGIVSGKYDSGIPPYSRASLKGYQWLKDKILSEEGRRQQAKLKELQAIAERLGCTLPQLAIAWCLRNEGVSSVLLGASNAEQLMENIGAIQVLPKLSSSIVHEIDSILGNKPYS", "soluble"],
  ["MADGQVHDELMMDQQQQQGVVPQQGDIHLSPIDKDLGDAALENNVRQYHLDGVVVSEGMKRMIIDLQRHWLSEYHASREKCLVELTEKLHQEFMMDQQKIRSELLQQFKDELEQTRADLENKHRENLKMESAKLNEKHKRELVASRKKQWCWSCDNEAIYHCCWNTAYCSVECQQGHWQTHRKFCRRKKGNNAPGAPSVPAPQQVGAPMPPQQQ", "not soluble"],
  ["MSLGDSETIRILVSTDNHVGYNERDPIRGDDSWKSFHEVMCLAKQHDVDMVLLAGDLFHENKPSRKSMYQVMRSIRMNCLGDKPCELQLLSDASENFQGAFNHVNYEDLDINVGIPIFSIHGNHDDPSGEGHLAALDILQVSGLLNYYGRTPESDNIQLKPVLLQKGRTKLALYGMSNVRDERLFRTFRDGKVKFFRPSVQKEDWYNLICVHQNHHAYTETGYLPENFLPEFLDLVIWGHEHECLINPREGHHHHHH", "soluble"],
  ["MGSDKIHHHHHHMAAQNAFEQKKRAILNEIDSTQPDLSPKGTIDELCLPIIDLINASADMVTTSSCSGRVSVFLEGTKSYNGEVKIGGKGQGGKWLYVTHDREKVIGWLDELKSKSEFSFELSGKEIPTEKVTGSIRYILYKYEPFILHVKCRDFQAASKLYNTAMSCGFRESGIGSNNLVAIRINIKLDVPLGYLDETSGTLKFFVTPEYVSVLDSLSLSKFDENTRKMQALYDRIEKELINCAPDVNSKVNITPIETKEERRERKKREGMERQRQLKSPQNVL", "not soluble"]
]}
